System: LXFL 529 NSCLC
Assay: NCI tumour cell line growth inhibition, 48 h
Measurement Type: TGI

Here's what some known entries look like.
> print(dat)
                                   compound  measurement.type    result
1               COc1cc(-c2cccs2)sc1-c1cccs1               TGI  > 100 µM
2  O=c1[nH]c2cc(Cl)ccc2nc1/C(=N\Nc1ccccc1)C(O)c1ccc(Cl)c(Cl)c1 (stereo not drawn)               TGI  > 100 µM
3  Clc1ccc2cccc3c2c1C1OC3c2ccccc21 (stereo not drawn)               TGI  > 100 µM
4  O=C1c2ccccc2C(=O)c2c(/C=C\N3CCCCC3)ccnc21               TGI     15 µM
5     O=C(Nc1c(O)[nH]c(=S)[nH]c1=O)c1ccccc1               TGI  > 100 µM

Q. Given the entry O=C(CC1Sc2ccccc2NC1=O)Nc1ccccc1[N+](=O)[O-] (stereo not drawn) , report its measured TGI.
A. > 100 µM

Q. Given the entry C/C(CN1C(=O)c2ccccc2C1=O)=N\NS(=O)(=O)c1ccc(Cl)cc1 , report its measured TGI.
A. > 100 µM

Q. Given the entry COCCOCOC(CCCCO)c1cc(C)c(O[Si](C)(C)C(C)(C)C)c(C)c1 (stereo not drawn) , report its measured TGI.
A. 22.6 µM
